TARGET_OR_SYSTEM: T1, human TREM2 (human, UniProt Q9NZC2 19-174, limits assumed)
T1 construct: also called triggering receptor expressed on myeloid cells 2
T1 sequence: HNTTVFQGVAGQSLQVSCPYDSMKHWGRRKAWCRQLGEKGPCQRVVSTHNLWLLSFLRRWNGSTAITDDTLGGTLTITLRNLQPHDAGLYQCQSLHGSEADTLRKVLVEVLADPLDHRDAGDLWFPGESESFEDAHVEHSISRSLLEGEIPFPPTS
ASSAY_COMMENT: 2nd screen, 2 nM
READOUT_NAME: Binding Signal

{"BINDER": "V16 (antibody, V domains shown, also called 6E7 variant V16) VH: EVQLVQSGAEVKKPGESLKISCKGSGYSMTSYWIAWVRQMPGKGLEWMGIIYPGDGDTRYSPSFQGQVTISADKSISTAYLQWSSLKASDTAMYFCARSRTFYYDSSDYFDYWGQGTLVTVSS VL: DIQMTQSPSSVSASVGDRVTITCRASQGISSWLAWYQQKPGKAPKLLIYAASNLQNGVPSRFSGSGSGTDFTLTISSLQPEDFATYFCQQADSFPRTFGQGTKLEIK", "RESULT": "3.57 fold over 6E7 parental antibody"}

// query Return Binding Signal for the following binder: V84 (antibody, V domains shown, also called 6E7 variant V84) VH: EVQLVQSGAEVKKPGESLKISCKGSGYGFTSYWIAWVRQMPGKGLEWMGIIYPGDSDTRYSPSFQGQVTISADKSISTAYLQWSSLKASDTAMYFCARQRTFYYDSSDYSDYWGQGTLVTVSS VL: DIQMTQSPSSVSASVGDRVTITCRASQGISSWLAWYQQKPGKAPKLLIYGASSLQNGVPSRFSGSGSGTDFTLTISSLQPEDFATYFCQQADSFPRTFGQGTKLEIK
// result 1.45 fold over 6E7 parental antibody

// query Return Binding Signal for the following binder: V14 (antibody, V domains shown, also called 6E7 variant V14) VH: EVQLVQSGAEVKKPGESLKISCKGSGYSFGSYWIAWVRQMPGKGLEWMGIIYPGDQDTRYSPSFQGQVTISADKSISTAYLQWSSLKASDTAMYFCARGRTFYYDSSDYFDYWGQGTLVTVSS VL: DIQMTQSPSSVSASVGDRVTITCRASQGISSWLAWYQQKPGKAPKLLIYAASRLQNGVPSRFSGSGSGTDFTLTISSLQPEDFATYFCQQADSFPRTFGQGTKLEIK
// result 2.57 fold over 6E7 parental antibody

The measurements presented in this section are drawn from patent US20250326839A1.
